Each recorded value in this set is attributed to patent US9783509B2.

System: greenhouse red spider mite (Tetranychus urticae)
Assay: Tetranychus urticae spray test, OP-resistant (bean leaf discs)
Assay type: in vivo
Settings: application rate 500 g/ha, after 6 days
Provide the recorded efficacy (spider mites killed) for the entries that follow.

Worked cases, answers included:
Cc1cc(F)c(-n2ncc(=O)n(CC(C)C)c2=O)cc1[S+]([O-])CC(F)(F)F (racemic) [compound 22]	100%
Cc1cc(C)c(-n2ncc(=O)n(CC#N)c2=O)cc1SCC(F)(F)F [compound 40]	100%
Cc1cc(C)c([S+]([O-])CC(F)(F)F)cc1-n1ncc(=O)n(CC(F)(F)F)c1=O (racemic) [compound 6]	90%

Provide efficacy (spider mites killed) for all items below, preserving their order.
1. C#CCn1c(=O)ccn(-c2cc(SCC(F)(F)F)c(C)cc2F)c1=O [compound 79]
2. CCn1c(=O)ccn(-c2cc(SCC(F)(F)F)c(C)cc2C)c1=O [compound 96]
3. C=CCn1c(=O)ccn(-c2cc(SCC(F)(F)F)c(C)cc2F)c1=O [compound 77]
4. Cc1cc(C)c(-n2ccc(=O)n(C)c2=O)cc1SCC(F)(F)F [compound 92]

90%
100%
90%
90%

efficacy (spider mites killed) for Cc1cc(F)c(-n2ncc(=O)n(C(C)C)c2=O)cc1SCC(F)(F)F [compound 26] ?
100%
